Measured On: Steryl-sulfatase (Homo sapiens) (UniProt P08842)
Sequence (whole entry): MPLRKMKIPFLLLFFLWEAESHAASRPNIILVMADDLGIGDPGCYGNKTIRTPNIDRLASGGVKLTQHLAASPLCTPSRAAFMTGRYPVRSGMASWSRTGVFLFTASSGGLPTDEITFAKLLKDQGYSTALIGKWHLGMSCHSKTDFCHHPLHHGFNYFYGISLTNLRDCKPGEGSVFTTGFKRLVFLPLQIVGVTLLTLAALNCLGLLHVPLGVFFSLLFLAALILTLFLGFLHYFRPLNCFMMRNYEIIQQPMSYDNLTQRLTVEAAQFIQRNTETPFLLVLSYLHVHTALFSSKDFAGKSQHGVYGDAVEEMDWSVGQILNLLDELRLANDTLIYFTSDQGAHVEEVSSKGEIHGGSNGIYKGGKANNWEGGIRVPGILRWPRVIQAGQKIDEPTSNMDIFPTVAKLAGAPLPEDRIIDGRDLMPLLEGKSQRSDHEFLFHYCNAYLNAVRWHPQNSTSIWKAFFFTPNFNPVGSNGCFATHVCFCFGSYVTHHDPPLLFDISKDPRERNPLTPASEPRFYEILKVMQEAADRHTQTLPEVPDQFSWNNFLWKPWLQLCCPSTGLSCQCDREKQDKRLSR
Assay Text: In vitro inhibition of estrone sulfatase at 1 mM.
As shown below, each of these molecules has a reported inhibition value.
Express the result in % but write the number alone.

Some solved cases for reference:
Task: Indicate its recorded inhibition; the molecule in question is CCCCCCCCCCCCOS(C)(=O)=O
Result: 17

Task: Indicate its recorded inhibition; the molecule in question is NS(=O)(=O)Oc1cccc([N+](=O)[O-])c1
Result: 90.4

Task: Indicate its recorded inhibition; the molecule in question is NS(=O)(=O)Oc1cccc(Br)c1
Result: 75.1

Task: Indicate its recorded inhibition; the molecule in question is NS(=O)(=O)Oc1cccc(I)c1
Result: 89.4

Switching to the query record.
Task: Indicate its recorded inhibition; the molecule in question is N#Cc1ccc(OS(N)(=O)=O)cc1
Result: 74.4

====

Measured On: Steryl-sulfatase (Homo sapiens, UniProt P08842)
Assay Text: In vitro inhibition of estrone sulfatase.
Metric: log10 IC50 (log10 of the value in uM l-1)
A value of 2 here means IC50 of 100 in uM l-1, since values are log10.

Some solved cases for reference:
Task: Indicate its recorded log10 IC50; the molecule in question is NS(=O)(=O)Oc1ccc(Cl)cc1
Result: 3.20

Task: Indicate its recorded log10 IC50; the molecule in question is NS(=O)(=O)Oc1ccc(F)cc1
Result: 2.73

Task: Indicate its recorded log10 IC50; the molecule in question is NS(=O)(=O)Oc1cccc(I)c1
Result: 2.08

Task: Indicate its recorded log10 IC50; the molecule in question is NS(=O)(=O)OCC(Cl)(Cl)Cl
Result: 2.88

Task: Indicate its recorded log10 IC50; the molecule in question is N#Cc1cccc(OS(N)(=O)=O)c1
Result: 2.28

Next:
Task: Indicate its recorded log10 IC50; the molecule in question is N#Cc1ccc(OS(N)(=O)=O)cc1
Result: 2.48

Task: Indicate its recorded log10 IC50; the molecule in question is NS(=O)(=O)Oc1cccc(Br)c1
Result: 2.41

Task: Indicate its recorded log10 IC50; the molecule in question is NS(=O)(=O)Oc1cccc(Cl)c1
Result: 2.73

Task: Indicate its recorded log10 IC50; the molecule in question is NS(=O)(=O)Oc1ccc(Br)cc1
Result: 2.96

Task: Indicate its recorded log10 IC50; the molecule in question is NS(=O)(=O)Oc1cccc([N+](=O)[O-])c1
Result: 2.08

====

As shown below, each of these molecules has a reported IC50 value.
Measured On: Steryl-sulfatase (Homo sapiens, UniProt P08842)
Assay Text: In vitro inhibition of estrone sulfatase.
Express the result in uM l-1 but write the number alone.

Some solved cases for reference:
Task: Indicate its recorded IC50; the molecule in question is NS(=O)(=O)Oc1cccc(F)c1
Result: 2089

Task: Indicate its recorded IC50; the molecule in question is NS(=O)(=O)Oc1ccc([N+](=O)[O-])cc1
Result: 330

Task: Indicate its recorded IC50; the molecule in question is Cc1cccc(OS(N)(=O)=O)c1
Result: 2089

Next:
Task: Indicate its recorded IC50; the molecule in question is NS(=O)(=O)Oc1ccc(I)cc1
Result: 560
